test: Half life in CD1 mouse blood at 2 mg/kg, iv after 8 hrs by LC/MS/MS; format: ADME, organism-based; details: whole blood
observable: half-life (min)
Reply with just the number (in min).

Q. Report half-life for CNc1ncc2cc(-c3ccc(-c4cccc(C)n4)cc3Cl)c(=O)n(C[C@H]3OC[C@H](N)CO3)c2n1
A. 53

====

assay: AUC (0 to 8 hrs) in CD1 mouse blood at 25 mg/kg, po after 8 hrs by LC/MS/MS; format: ADME, organism-based; design: time < 8 hr, dose 25 mg/kg, route oral; conditions: whole blood
observable: AUC(0-t) at 8 h (µM·h)
Reply with just the number (in µM·h).

Q. Report AUC(0-t) at 8 h for CNc1ncc2cc(-c3ccc(-c4cccc(C)n4)cc3Cl)c(=O)n(C[C@H]3OC[C@H](N)CO3)c2n1
A. 30
